test.target: FGFR4 (Homo sapiens, UniProt P22455)
Sequence (P22455 22-802): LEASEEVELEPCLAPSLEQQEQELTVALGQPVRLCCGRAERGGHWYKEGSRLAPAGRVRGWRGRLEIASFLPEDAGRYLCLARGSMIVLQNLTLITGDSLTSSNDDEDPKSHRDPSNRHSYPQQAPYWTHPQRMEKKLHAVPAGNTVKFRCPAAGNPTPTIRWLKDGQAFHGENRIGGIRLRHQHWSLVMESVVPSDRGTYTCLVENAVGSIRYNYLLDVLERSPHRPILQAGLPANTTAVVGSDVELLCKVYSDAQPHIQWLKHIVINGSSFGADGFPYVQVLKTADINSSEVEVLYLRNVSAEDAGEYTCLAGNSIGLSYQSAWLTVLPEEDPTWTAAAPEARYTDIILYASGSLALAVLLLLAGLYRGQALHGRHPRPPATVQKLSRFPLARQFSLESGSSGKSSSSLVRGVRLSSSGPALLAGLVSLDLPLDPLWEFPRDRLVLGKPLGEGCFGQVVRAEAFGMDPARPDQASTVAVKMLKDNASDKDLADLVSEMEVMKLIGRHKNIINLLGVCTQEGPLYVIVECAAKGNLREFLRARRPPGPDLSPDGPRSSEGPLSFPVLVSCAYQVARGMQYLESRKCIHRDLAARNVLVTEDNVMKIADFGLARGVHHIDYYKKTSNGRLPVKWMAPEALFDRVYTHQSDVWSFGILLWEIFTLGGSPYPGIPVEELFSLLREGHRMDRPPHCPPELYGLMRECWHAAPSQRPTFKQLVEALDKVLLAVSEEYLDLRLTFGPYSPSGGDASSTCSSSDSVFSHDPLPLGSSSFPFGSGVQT
assay.overview: FRET-based Z′-Lyte kinase assay
Assay type: biochemical
readout.label: IC50 (nM)
Give bare numbers, in nM.

Response field IC50 (FGFR4 (Homo sapiens, UniProt P22455)) for item Cc1ccc(C(=O)Nc2ccc(CN3CCN(C)CC3)c(C(F)(F)F)c2)cc1C#Cc1cnc2[nH]ncc2c1 : 30.3

* * *

test.target: FGFR3 (Homo sapiens, UniProt P22607)
Sequence (P22607 23-806): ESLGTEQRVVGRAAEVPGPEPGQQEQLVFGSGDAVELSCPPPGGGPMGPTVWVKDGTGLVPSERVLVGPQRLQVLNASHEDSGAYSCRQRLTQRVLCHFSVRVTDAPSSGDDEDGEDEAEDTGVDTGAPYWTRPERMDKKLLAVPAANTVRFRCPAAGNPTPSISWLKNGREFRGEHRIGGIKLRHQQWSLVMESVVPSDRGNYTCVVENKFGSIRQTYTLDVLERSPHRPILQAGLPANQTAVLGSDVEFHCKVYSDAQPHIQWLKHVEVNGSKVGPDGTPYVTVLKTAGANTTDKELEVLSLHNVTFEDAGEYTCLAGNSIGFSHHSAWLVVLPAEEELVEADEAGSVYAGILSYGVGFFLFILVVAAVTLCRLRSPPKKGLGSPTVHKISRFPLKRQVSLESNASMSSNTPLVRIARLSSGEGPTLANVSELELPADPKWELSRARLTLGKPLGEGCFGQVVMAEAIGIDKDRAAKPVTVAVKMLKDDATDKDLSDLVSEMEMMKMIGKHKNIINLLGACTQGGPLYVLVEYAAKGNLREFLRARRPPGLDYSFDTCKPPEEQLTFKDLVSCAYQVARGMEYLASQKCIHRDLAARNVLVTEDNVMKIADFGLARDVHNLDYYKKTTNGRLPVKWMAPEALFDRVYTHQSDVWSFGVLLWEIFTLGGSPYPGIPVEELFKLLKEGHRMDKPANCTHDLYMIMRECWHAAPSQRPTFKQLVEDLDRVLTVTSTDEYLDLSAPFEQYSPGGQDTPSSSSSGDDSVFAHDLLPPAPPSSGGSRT
assay.overview: KINOMEscan binding affinity assay
readout.label: Kd

Cc1ccc(C(=O)Nc2ccc(CN3CCN(C)CC3)c(C(F)(F)F)c2)cc1C#Cc1cnc2[nH]ncc2c1 yielded Kd of 17 nM
